# IC50 per entry
# Tested on: primary CLL cells cultured with or without NK Tert stroma
# protocol-details: Primary CLL cells with or without NK Tert stroma, Annexin V / TMRM
# Assay type: cell-based
# run-parameters: Homo sapiens, CLL cell, read-out: IC50, CLL cells without stromal protection

molecule	test-target	IC50
CC1(C)CCC(CN2CCN(c3ccc(C(=O)NS(=O)(=O)c4ccc(NCC5CCOCC5)c([N+](=O)[O-])c4)c(Oc4cnc5[nH]ccc5c4)c3)CC2)=C(c2ccc(Cl)cc2)C1 [venetoclax]	primary CLL cells cultured with or without NK Tert stroma	0.908 nM
CC1(C)CCC(c2ccc(Cl)cc2)=C(CN2CCN(c3ccc(C(=O)NS(=O)(=O)c4ccc(N[C@H](CCN5CCOCC5)CSc5ccccc5)c(S(=O)(=O)C(F)(F)F)c4)cc3)CC2)C1 [navitoclax]	primary CLL cells cultured with or without NK Tert stroma	5.9 nM

---

# pIC50 per entry
# protocol-details: in vitro
# run-parameters: human
pIC50: −log10 of the molar value.

compound	pIC50
CC1(C)CCC(c2ccc(Cl)cc2)=C(CN2CCN(c3ccc(C(=O)NS(=O)(=O)c4ccc(N[C@H](CCN5CCOCC5)CSc5ccccc5)c(S(=O)(=O)C(F)(F)F)c4)cc3)CC2)C1 [navitoclax]	6.77
CC1(C)CCC(CN2CCN(c3ccc(C(=O)NS(=O)(=O)c4ccc(NCC5CCOCC5)c([N+](=O)[O-])c4)c(Oc4cnc5[nH]ccc5c4)c3)CC2)=C(c2ccc(Cl)cc2)C1 [venetoclax]	4.60

---

# System: RS4;11
# protocol-details: CellTiter-Glo viability, RS4
# Type: cell-based
# run-parameters: Homo sapiens, RS4-11, 24 h, read-out: IC50, CellTiter-Glo
pIC50: −log10 of the molar value.
measured-endpoint: pIC50

chemical-smiles	measured-endpoint	number
CC1(C)CCC(CN2CCN(c3ccc(C(=O)NS(=O)(=O)c4ccc(NCC5CCOCC5)c([N+](=O)[O-])c4)c(Oc4cnc5[nH]ccc5c4)c3)CC2)=C(c2ccc(Cl)cc2)C1	pIC50	8.33
CC1(C)CCC(c2ccc(Cl)cc2)=C(CN2CCN(c3ccc(C(=O)NS(=O)(=O)c4ccc(N[C@H](CCN5CCOCC5)CSc5ccccc5)c(S(=O)(=O)C(F)(F)F)c4)cc3)CC2)C1	pIC50	7.38

---

# System: MOLT4
# protocol-details: CellTiter-Glo viability, MOLT4
# Format: cell-based
# run-parameters: read-out: IC50, CellTiter-Glo; MOLT4, 24 hr

chemical-smiles	test-target	IC50 [nM]
Cc1c(-c2ccc(N3CCc4cccc(C(=O)Nc5nc6ccccc6s5)c4C3)nc2C(=O)O)cnn1CC12CC3CC(CC(C3)C1)C2	MOLT4	5.5
